- Test system: T-47D breast
- assay protocol: NCI-60 one-dose screen, 48 h (100 = growth as untreated, 0 = no growth, -100 = all killed)
- details: 10 µM unless noted
About 83,000 compounds went through this panel and 20% of them were active in at least one assay; those are over-represented in the sample as a whole.
Known growth of a selection of compounds
outcome measure: growth (%)

- Nc1c(C(=O)C[C@@H](N)CO)ccc2c1C(=O)CCO2: 33.6
- CSc1ccc(/C=C2\C=C(CC(=O)NCc3ccc(C(=O)c4ccccc4)cc3)c3cc(F)ccc32)cc1: 31.6
- O=C(NNC(=O)c1cccc(Cl)c1)c1ccccc1: 103
- C=C(C)[C@@H]1CC[C@]2(C(=O)NC(COC(=O)C(Cl)Cl)(COC(=O)C(Cl)Cl)COC(=O)C(Cl)Cl)CC[C@]3(C)[C@H](CC[C@@H]4[C@@]5(C)CC[C@H](OC(C)=O)C(C)(C)[C@@H]5CC[C@]43C)[C@@H]12: 31.9
- C=C1C(=O)O[C@H]2[C@H]1CC/C(COC(=O)NCc1c[nH]c3ccc(OC)cc13)=C\CC[C@@]1(C)O[C@@H]21: -52
- COc1cccc(-c2cc(-c3cccs3)c(C#N)c(=O)[nH]2)c1: 93.3
- COc1ccc(C2NC(=O)c3cc4c(cc3N2)OCO4)cc1 (configuration not stated): 65.5
- COc1cc(C2CC(c3ccccc3)=NN2C=O)ccc1Oc1ccnc2cc(Cl)ccc12 (configuration not stated): 33.6
- COc1cc(OC)c2sc(-c3ccc(-n4cncc4-c4ccc(OC)c(N)c4)cc3)nc2c1: 77.2
- COc1ccc(NC(=O)c2sc3c(=O)[nH]c(C(F)(F)F)nc3c2C)cc1: 89.7
- CS(=O)(=O)c1ccc(C(=O)N/N=C/c2cccc3ccccc23)cc1: 85.3
- COc1ccc2nc3ccccc3c(NCc3ccc(C)cc3)c2c1: 30.6
- CC(=O)Cc1ccccn1: 108
- CCCCCCCCCCCCCCCCCC(=O)[O][Sn]([CH2]CCC)([CH2]CCC)[CH2]CCC: -78.9
- C/C(=N\NC(=O)CSc1nc2ccccc2c(=O)n1CCc1ccc(S(N)(=O)=O)cc1)c1ccc(Br)cc1: 91.9
- COc1ccc(NC(=O)Cn2c(=O)sc3c(-c4ccc(Cl)cc4)cc(-c4ccc(Cl)cc4)nc32)cc1: 79.9
- CCN(CC)c1ccc(/C=N/N=C(N)N)cc1: 63.4
- Clc1cc(Cl)cc(-c2cnc3nonc3n2)c1: 59.8
- Cc1[nH]c2ccccc2c1C1=CC(=O)C=CC1=O: 28.5
- O=c1nc(-c2ccccc2)c2cc(-c3ccc(N4CCOCC4)cc3)ccc2[nH]1: 52.4
- C=C1C(=O)O[C@H]2[C@H]1CC/C(COC(=O)NCc1[nH]nc3ccccc13)=C\CC[C@@]1(C)O[C@@H]21: 37.4
- O=S(=O)(Nc1ccc2ccccc2c1)N1CCCCC1: 50.3
- Nc1c(Br)cc2c(c1Br)Cc1cc(Cl)ccc1-2: 66
- COc1ccc2c(c1)sc1nc(-c3ccccc3)c(-c3cccc4ccccc34)n12: 60.5
- S=C(Cc1ccccc1)N1CCN(c2ccccc2Cl)CC1: 94.4
- COc1cccc(NC(=O)OC(C)C)c1: 93.8
- COc1cc(CN(c2ccc(C)cc2)C2OC(=O)c3ccccc32)cc(OC)c1OC (configuration not stated): 53.8
- Cc1cc(Nc2c3ccccc3nc3ccccc23)ccc1NS(C)(=O)=O: 45
- O=C(CCl)Nc1ccc2c(c1)C(=O)c1ccccc1C2=O: -71
- COc1ccc(Nc2nc(N)nc3c(=O)[nH]ccc23)cc1: 96.6
- CCOC(=O)c1ccc2c(c1)[n+](=O)c(C(=O)c1ccc3ccccc3c1)c(C(F)(F)F)n2[O-]: -91.1
- O=C(/C=C/c1ccco1)c1ccccc1O: 77.7
- Cn1cnc([N+](=O)[O-])c1S(=O)(=O)Oc1ccccc1: 5.06
- COc1ccc(-c2cc(-c3cc4ccccc4oc3=O)n(-c3ccccc3)n2)cc1: 73.1
- COc1ccc(Cl)cc1Nc1nc(C(F)(F)F)ccc1C(=O)NN: 29.4
- N=C(N)c1ccc(-c2ccc(-c3cccs3)s2)cc1F: -63.7
- CC(C)(c1ccccc1)c1cc(O)c(C(C)(C)c2ccccc2)cc1O: -0.998
- CCN(CC)c1ccc(/C=N/NC(=O)c2ccc(S(C)(=O)=O)cc2)c(O)c1: 30
- NC(CCC(=O)NC(CS)C(=O)NCC(=O)O)C(=O)O (configuration not stated): 107
- NS(=O)(=O)c1ccc(CCn2c(SCC(=O)N/N=C/c3ccccc3O)nc3ccccc3c2=O)cc1: 49.2
- Cc1ccc(C(CN(C)C)C(=O)c2ccccc2)cc1 (configuration not stated): 33
- O=C(Nc1ccncc1)C(=O)c1cn(S(=O)(=O)c2cccc(Cl)c2F)c2ccccc12: 74.2
